- assay.info: NCI Yeast Anticancer Drug Screen. Data for the cln2 rad14 strain (AID 165);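 further: 0% = growth equal to vehicle treated cultures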
- particulars: S. cerevisiae cln2 rad14 strain, at 50.0 µM, hits give high values
The panel holds about 79,000 compounds, 15% with a hit somewhere; the sample as a whole holds those more often.
Recorded growth inhibition values for a group of compounds are listed next.
Please respond with the number in % and leave the unit unwritten.

Summary for this compound, `S=C(SSC(=S)N1CCOCC1)N1CCOCC1` : growth inhibition is 99

Summary for this compound, `O=[N+]([O-])c1ccc(C2N(Cc3ccc(Cl)cc3)CCN2Cc2ccc(Cl)cc2)cc1` : growth inhibition is 64.5

====

- assay.info: NCI Yeast Anticancer Drug Screen. Data for the sgs1 mgt1 strain (AID 161);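 further: 0% = growth of cultures given vehicle only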
- particulars: S. cerevisiae sgs1 mgt1 strain, at 50.0 µM (retest, dose inferred, filed as 5.0)
The panel holds about 79,000 compounds, 15% with a hit somewhere; the sample as a whole holds those more often. Calls of active or inactive are those of the source. Cut-off read from the data, not from the text of the source: active = growth inhibition above about 70%; inactive = the rest.
Pick one and only one: yes = active, no = inactive

compound	class.assignment
CC(=O)Nc1nc(-c2ccccc2)cs1	no
O=c1c2ccccc2ncn1O	yes

Query: Outcome? `CCOC(=O)c1cc(CC)sc1NC(=O)CC(C)=O`
Result: no

Query: Outcome? `NCCN1C(=O)CNC1=S`
Result: no

Query: Outcome? S=C1NC2=C(COc3ccccc32)C(c2ccc(Cl)cc2)N1 (stereo unspecified)
Result: yes

Query: Outcome? `C1=C(c2ccccc2)c2ccccc2C1`
Result: no

Query: Outcome? `O=S(=O)(O)c1cnccn1`
Result: no

Query: Outcome? `O=C(c1ccc(O)c(Br)c1)c1ccc(O)c(Br)c1`
Result: yes

Query: Outcome? COc1cccc2c1C(=O)c1c(O)c3c(c(O)c1C2=O)C[C@@](O)(C(=O)CO)C[C@@H]3OC1CC(OC(C)=O)C(OC(C)=O)C(C)O1 (stereo partly specified)
Result: yes

Query: Outcome? `CC1=CC[C@@H]2[C@@H](CC[C@@]2(C)O)C(C)(C)[C@H]1CC[C@@H]1[C@@]2(C)CC[C@@H](O)C(C)(C)O[C@@H]2CC[C@]1(C)O`
Result: yes

Query: Outcome? CCOC(=O)C1C(C(C)C)C2(C#N)C(=N)OC1(C)C2(C#N)C#N (stereo unspecified)
Result: no

====

Recorded growth inhibition values for a group of molecules are listed next.
- assay.info: NCI Yeast Anticancer Drug Screen. Data for the rad50 strain (AID 155);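 further: 0% = growth of vehicle-only cultures of the same strain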
- particulars: S. cerevisiae rad50 strain growth inhibition; at 5.0 µM (retest, dose inferred, filed as 0.5); hits give high values
The panel holds about 79,000 compounds, 15% with a hit somewhere; the sample as a whole holds those more often. Activity calls are given as the source filed them. Rule as the data show it: active = growth inhibition above about 70%; inactive = the rest.

Examples with answers:
molecule	endpoint.value
O=C(c1ccccc1)C(Br)C(Br)c1ccccc1 (stereo unspecified)	31% (inactive)
CCCCCCCCCCCC[N+]1(CCCCCCCCCCCC)CCCC(C)C1 (stereo unspecified)	99% (active)
Cc1nc([N+](=O)[O-])c(Sc2nncc(-c3ccccc3)n2)n1C	8% (inactive)
O=C1CCC2(C=C(Br)C(=O)C(Br)=C2)O1	42% (inactive)
CCC[CH2][Sn]([CH2]CCC)([CH2]CCC)[O]C(=O)C(OC(C)=O)c1ccccc1 (stereo unspecified)	99% (active)

Summary for this molecule, `N#C/C(=N\Nc1ccc(Cl)cc1)C(=O)C1CC1` : growth inhibition is 59% (inactive)

Summary for this molecule, `N#Cc1ccc(Br)cc1[N+](=O)[O-]` : growth inhibition is 45% (inactive)

Summary for this molecule, CC(/C=N/NC(N)=S)Cc1ccc(C(C)C)cc1 (stereo unspecified) : growth inhibition is 28% (inactive)

Summary for this molecule, CCC1C[N+]2=C(c3cc(OC)c(OC)cc3CC2)c2c1cc1n2CCc2cc(OC)c(OC)cc2-1 (stereo unspecified) : growth inhibition is 99% (active)

Summary for this molecule, `CCOC(=O)/C(=C\c1ccc2ccccc2c1)P(=O)(OCC)OCC` : growth inhibition is -3% (inactive)

Summary for this molecule, `CN(C)CCN(C)CC(C)(C)C(=O)/C=C/c1ccc(Cl)c(Cl)c1` : growth inhibition is 13% (inactive)

====

- assay.info: NCI Yeast Anticancer Drug Screen. Data for the mlh1 rad18 strain (AID 175)
- particulars: S. cerevisiae mlh1 rad18 strain growth inhibition; at 50.0 µM
The panel holds about 79,000 compounds, 15% with a hit somewhere; the sample as a whole holds those more often. Active and inactive are the calls of the source. No stated cut-off is given here; in the data, active means growth inhibition above about 70%; inactive means the rest.
Pick one and only one: active, inactive

compound	class.assignment
O=C(c1ccccc1)C(O)C(Br)(CBr)c1ccccc1 (configuration not stated)	active
CCOc1ccc(C(C[N+](=O)[O-])Sc2ccccc2N)cc1 (configuration not stated)	active
CN(C)c1ccc(C(C#N)(c2ccccc2)c2ccc(N(C)C)cc2)cc1	inactive
CCCCCC/C=C1\CCC(CN2CCCC2)C1=O (configuration not stated)	active
Oc1ccc(Nc2ccc3ccccc3c2)cc1	active

Query: Outcome? `CC(C)(C)c1ccc(O)c(-c2ccccc2)c1`
Result: inactive

Query: Outcome? `COc1cc2c(c(OC)c1OC)-c1ccc(NCc3ccccc3)c(=O)cc1[C@@H](NC(C)=O)CC2`
Result: inactive

Query: Outcome? `CCCCCCCCCCCCCCCCSC(=NCC)NCC`
Result: active

Query: Outcome? CCOC(=O)C1C(C(C)C)C2(C#N)C(=N)OC1(C)C2(C#N)C#N (configuration not stated)
Result: inactive

Query: Outcome? `O=C1c2ccccc2Cc2cccc(Cl)c21`
Result: inactive

Query: Outcome? `N=C1C(=N)c2ccccc2-c2ccccc21`
Result: active

Query: Outcome? `On1c(-c2ccccc2)nc2ccccc2c1=S`
Result: active

====

- assay.info: NCI Yeast Anticancer Drug Screen. Data for the cln2 rad14 strain (AID 165);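 further: 0% = growth equal to vehicle treated cultures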
- particulars: S. cerevisiae cln2 rad14 strain, at 5.0 µM (retest, dose inferred, filed as 0.5), hits give high values
The panel holds about 79,000 compounds, 15% with a hit somewhere; the sample as a whole holds those more often.
reported.metric: growth inhibition (%)
Please respond with the number in % and leave the unit unwritten.

Examples with answers:
compound	growth inhibition, %
CC(=O)c1ccc2c(c1)CCc1ccccc1-2	2
Cn1c(-c2ccccc2)c(/C=C/C2=[N+](C)c3ccccc3C2(C)C)c2ccccc21	59
CSS(C)(=O)=O	-4
Nc1c(N)c(Cl)c(Cl)c(Cl)c1Cl	43
CC1=C(/C=C/C(C)=C/C(=O)O)C(C)(C)CCC1	3
N#Cc1ccc(Br)cc1[N+](=O)[O-]	90

Next up:
Summary for this compound, CCCCC(CCc1ccc([N+](=O)[O-])cc1)(C(C)=O)C(=O)OCC (configuration not stated) : growth inhibition is -4

====

- assay.info: NCI Yeast Anticancer Drug Screen. Data for the mec2-1 strain (AID 157)
- particulars: S. cerevisiae mec2-1 strain, at 5.0 µM (retest, dose inferred, filed as 0.5), hits give high values
- Experimental: Growth inhibition of yeast strains with defined genetic alterations is measured as a screen for potential anti-cancer activity. Selected strains with alterations in DNA damage repair or cell cycle control were exposed to compounds and growth inhibition was measured relative to vehicle treated controls. The strain used in this assay is mec2-1
Compounds without any hit were thinned out: in the full panel of roughly 79,000, 15% have a hit. Calls of active or inactive are those of the source. Rule as the data show it: active = growth inhibition above about 70%; inactive = the rest. Where a SMILES comes first, the peptide text is derived from it. [ ]: non-standard residue; d: D form. ξ: configuration not given here. ξD = NC(CC(=O)O)C(=O)O
reported.metric: growth inhibition

Examples with answers:
compound	endpoint.value
CCCCNC(=O)C(C)O (stereo unspecified)	0% (inactive)
COc1cc(/C=C/c2ccnc3ccccc23)cc(OC)c1OC	34% (inactive)
NCC(=O)NC(CC(=O)O)C(=O)O (stereo unspecified) (H-Gly-[ξD]-OH)	-6% (inactive)
OC(c1cc2ccc(C(F)(F)F)cc2c2cc(C(F)(F)F)ccc12)C1CCCCN1 (stereo unspecified)	77% (active)
OCCOSCCO	2% (inactive)
CC(C)NC(=O)C(C)O (stereo unspecified)	1% (inactive)
CC/C(=C(/CC)c1ccc(O)cc1)c1ccc(O)cc1	6% (inactive)
CN(C)CC(C)(CN(C)C)C(=O)/C=C/c1c(Cl)cccc1Cl	-2% (inactive)

Summary for this compound, Nc1nc2ncc(CNc3ccc(C(=O)NC(CCC(=O)NC(CCC(=O)NC(CCC(=O)NC(CCC(=O)NC(CCC(=O)O)C(=O)O)C(=O)O)C(=O)O)C(=O)O)C(=O)O)cc3)nc2c(=O)[nH]1 (stereo unspecified) : growth inhibition is 0% (inactive)

Summary for this compound, `CCCN(CCC)C(=O)c1ccc(C)cc1` : growth inhibition is 2% (inactive)

Summary for this compound, `CCSC(=O)c1ccc([N+](=O)[O-])o1` : growth inhibition is 6% (inactive)

====

- assay.info: NCI Yeast Anticancer Drug Screen. Data for the cln2 rad14 strain (AID 165);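 further: 0% = growth equal to vehicle treated cultures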
- particulars: S. cerevisiae cln2 rad14 strain, at 50.0 µM (retest, dose inferred, filed as 5.0)
- Method: Growth inhibition of yeast strains with defined genetic alterations is measured as a screen for potential anti-cancer activity. Selected strains with alterations in DNA damage repair or cell cycle control were exposed to compounds and growth inhibition was measured relative to vehicle treated controls. The strain used in this assay is cln2 rad14
Compounds without any hit were thinned out: in the full panel of roughly 79,000, 15% have a hit. Calls of active or inactive are those of the source. No stated cut-off is given here; in the data, active means growth inhibition above about 70%; inactive means the rest. *1 amine or outer side, *2 acyl side, *3 side chain or, on linkers, in order; H or OH if unused. Where a SMILES comes first, the peptide text is derived from it. Bridges are numbered along the chain shown (N, C = ends). Roman numbers before positions name the chains, in order. [ ]: non-standard residue; d: D form. ξ: configuration not given here. Actinocin(1to9) = Cc1c2oc3c(C)ccc(C(=O)[*:2])c3nc-2c(C(=O)[*:1])c(N)c1=O; NMeV = CN[CH](C(=O)O)C(C)C; ξD = NC(CC(=O)O)C(=O)O; Sar = CNCC(=O)O
Pick one and only one: YES = active, NO = inactive

molecule	class.assignment
CN(C)c1ccc(/C=C/c2ccnc3ccccc23)cc1	NO
O=C(Cc1nc2cc(Cl)c(Cl)cc2nc1CC(=O)c1ccccc1)c1ccccc1	YES
C[n+]1ccccc1C[n+]1ccccc1	NO
CCC(C)(O)Cc1ccc(Cl)cc1 (stereo not given)	NO
O=C(/C=C/C(Cl)(Cl)Cl)Nc1ccc(Cl)cc1	NO
CN(C)CCN(C)CC(C)(C)C(=O)/C=C/c1ccc(Cl)c(Cl)c1	YES
Oc1ccccc1N=Cc1ccccc1	NO
COc1cc(/C=C2\SC(=S)N(/C=C/c3nc4ccccc4[nH]c3=O)C2=O)cc(OC)c1OC	NO
C1CCC(CCCc2nn[nH]n2)CC1	NO
CCN1CCCC(Nc2cc(C)nc(/N=C(/N)Nc3ccc(Cl)c(Cl)c3)n2)C1 (stereo not given)	YES

Query: Outcome? `CCCCCCCCCCCCSC(=N)N`
Result: YES

Query: Outcome? `O=C/C=C/c1ccc([N+](=O)[O-])cc1`
Result: YES

Query: Outcome? CCCCCCCCCCCC1N=C(N)N=C(N)N1c1cccc(Br)c1 (stereo not given)
Result: YES

Query: Outcome? `N#Cc1ccc(Br)cc1[N+](=O)[O-]`
Result: YES

Query: Outcome? `CN1CCC(c2ccccc2)(c2ccccc2)C(=O)C1`
Result: NO

Query: Outcome? `O=[N+]([O-])c1ccc(C2N(Cc3ccc(Cl)cc3)CCN2Cc2ccc(Cl)cc2)cc1`
Result: YES

Query: Outcome? NCC(=O)NC(CC(=O)O)C(=O)O (stereo not given) (H-Gly-[ξD]-OH)
Result: NO

Query: Outcome? CCC(C)C1NC(=O)C(NC(=O)c2c3nc4c(C(=O)NC5C(=O)NC(C(C)CC)C(=O)N6CCCC6C(=O)N(C)CC(=O)N(C)C(C(C)C)C(=O)OC5C)ccc(C)c4oc-3c(C)c(=O)c2N)C(C)OC(=O)C(C(C)C)N(C)C(=O)CN(C)C(=O)C2CCCN2C1=O (stereo not given) (I: TIP[Sar][NMeV] / II: TIP[Sar][NMeV]; ester I:1-I:C, II:1-II:C; linker I:N-II:N via Actinocin(1to9); configuration not given here)
Result: YES

Query: Outcome? `Cc1ccc(Nc2ccc(O)c3c2C(=O)c2c(O)ccc(Nc4ccc(C)cc4)c2C3=O)cc1`
Result: NO

Query: Outcome? `COC(=O)[C@]1(C)CCC[C@@]2(C)[C@@H]3C[C@@H]4[C@H]5C[C@@]3(CC[C@@H]21)C[C@@]45C`
Result: YES
